Would you mind telling me the reported melting point of each entry?

Consider the following items and state reported melting point for each.
1. Cc1ccc(S(=O)(=O)NCc2ccc(CNC(=O)c3ccccc3Cl)cc2)cc1
2. O=C(NCc1ccc(CNS(=O)(=O)c2ccccc2)cc1)c1ccc([N+](=O)[O-])cc1
3. Cc1ccc(S(=O)(=O)NCc2ccc(CNC(=O)c3ccc(F)cc3)cc2)cc1
4. O=C(NCc1ccc(CNS(=O)(=O)c2ccccc2)cc1)c1cccnc1
5. O=C(NCc1ccc(CNS(=O)(=O)c2ccccc2F)cc1)c1cc2ccccn2n1

Solution:
1: 140 to 142 °C; 2: 201 to 203 °C; 3: 187 to 189 °C; 4: 109 to 111 °C; 5: 138 to 140 °C

====

Test system: xylene-induced ear edema
EXPERIMENT: Xylene-induced ear inflammation suppression test
Assay type: in vivo, mice
TEST CONTEXT: 10 mg/kg i.p., 30 minutes after xylene; sacrificed 2 hours later
So I've got a bunch of molecules here, and I need their inflammation suppression (mouse ear edema) values.
Remember to quote the unit after the number.

Example entries and their recorded answers appear below.
compound_string=Cc1nnsc1C(=O)NCc1ccc(CNS(=O)(=O)c2ccc(F)c(F)c2)cc1 val=54%
compound_string=Cc1ccc(S(=O)(=O)NCc2ccc(CNC(=O)c3ccc(F)cc3)cc2)cc1 val=75%
compound_string=O=C(NCc1ccc(CNS(=O)(=O)c2ccccc2)cc1)c1ccccc1 val=62%

// next entry
Exercise: Notebook entry, xylene-induced ear edema assay: inflammation suppression (mouse ear edema) of O=C(NCc1ccc(CNS(=O)(=O)c2ccc(F)cc2F)cc1)c1cncnc1 = ?
Solution: 56%

====

Hi there, I'd appreciate the recorded melting point for every entry that follows.

Sample answers from the record:
compound="O=C(NCc1ccc(CNS(=O)(=O)c2ccccc2)cc1)c1ccccc1Cl [IIIk]" val="116 to 118 °C"
compound="O=C(NCc1ccc(CNS(=O)(=O)c2ccccc2)cc1)c1ccccc1 [IIIa]" val="139 to 141 °C"
compound="Cc1ccc(S(=O)(=O)NCc2ccc(CNC(=O)c3cccc(Cl)c3)cc2)cc1 [IIm]" val="110 to 112 °C"

Please look at the following compound next.
Exercise: // returns reported melting point for input Cc1ccc(S(=O)(=O)NCc2ccc(CNC(=O)c3ccccc3C)cc2)cc1 [IIb]
Solution: 147 to 149 °C

This collection of values is drawn from patent US10669270B2.
